Recorded EC50, one value per entry.
Target Or System: CBL-B (Homo sapiens)
Construct: endogenous in cells; host or cells: Jurkat HiBit-IL2 reporter cells, C-CBL knocked out by CRISPR
Sequence (Q13191 whole entry): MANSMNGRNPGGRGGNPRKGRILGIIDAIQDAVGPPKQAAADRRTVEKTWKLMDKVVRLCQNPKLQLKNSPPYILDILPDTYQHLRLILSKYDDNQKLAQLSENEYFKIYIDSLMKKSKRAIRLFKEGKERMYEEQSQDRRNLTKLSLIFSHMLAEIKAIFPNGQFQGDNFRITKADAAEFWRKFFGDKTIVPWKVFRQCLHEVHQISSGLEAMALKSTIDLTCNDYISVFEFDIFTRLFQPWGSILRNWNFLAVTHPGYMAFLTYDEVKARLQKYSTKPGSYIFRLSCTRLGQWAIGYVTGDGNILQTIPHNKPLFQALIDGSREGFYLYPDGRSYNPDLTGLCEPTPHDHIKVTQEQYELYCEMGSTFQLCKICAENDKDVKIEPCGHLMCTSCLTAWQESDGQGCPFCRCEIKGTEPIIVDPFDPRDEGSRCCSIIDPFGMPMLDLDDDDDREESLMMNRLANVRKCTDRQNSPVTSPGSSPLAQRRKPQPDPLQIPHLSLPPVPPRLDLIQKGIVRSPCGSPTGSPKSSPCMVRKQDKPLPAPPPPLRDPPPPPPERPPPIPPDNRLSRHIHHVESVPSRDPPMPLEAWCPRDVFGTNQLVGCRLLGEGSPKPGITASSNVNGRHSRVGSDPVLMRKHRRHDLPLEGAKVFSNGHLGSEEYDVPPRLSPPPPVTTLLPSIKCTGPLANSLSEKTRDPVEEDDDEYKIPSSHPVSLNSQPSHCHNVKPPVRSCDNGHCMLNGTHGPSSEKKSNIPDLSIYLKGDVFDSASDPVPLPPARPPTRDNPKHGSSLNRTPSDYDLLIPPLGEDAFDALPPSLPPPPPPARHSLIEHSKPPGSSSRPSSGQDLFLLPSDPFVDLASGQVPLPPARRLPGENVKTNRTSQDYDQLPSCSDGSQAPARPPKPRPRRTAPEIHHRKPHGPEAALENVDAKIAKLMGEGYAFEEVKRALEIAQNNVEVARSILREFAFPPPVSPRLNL
Method: Jurkat HiBit-IL2 assay (c-CBL KO), reporter cell line expressing CBL-B only
Type: cell-based
Experimental Conditions: C-CBL KO (expressing CBL-B only), geometric mean, Table 16b (further repetition), read-out: C-CBL KO EC50 (nM) GMean
The answer is to be given in nM; state only the numeric part.

Use these answered entries as a reference point.
Cn1cnnc1[C@@H](c1cccc(-c2n[nH]c3c(CN[C@@H]4CCC[C@@H]4O)nc(C(F)(F)F)cc23)c1)C1CCC1 [Example C1] | 116
C[C@H](O)C(=O)N[C@@H](C)c1nc(C(F)(F)F)cc2c(-c3cccc([C@H](c4nncn4C)C4CCC4)c3)n[nH]c12 (single isomer, unassigned) [Example I3] | 6
CC1CN(Cc2nc(C(F)(F)F)cc3c(-c4cccc(C5(Cc6nncn6C)COC5)c4)n[nH]c23)CCC1(F)F (single isomer, unassigned) [Example C32] | 49

*Q* Returns the measured EC50 for the input compound. Input: CC(NC1CCCC1)c1nc(C(F)(F)F)cc2c(-c3cccc([C@H](c4nncn4C)C4CCC4)c3)n[nH]c12 (stereo partly shown) [Example C14]
*A* 5
